Target: c-kit mutant D816V (Homo sapiens, UniProt P10721, D816V/DEL694-753)
Construct: residues 551-934, kinase insertion domain residues 694-753 deleted; 6x-histidine (N); made in house; host or cells: E. coli Arctic Express (DE3) RIL (Stratagene)
Sequence (P10721 with tags, fused parts or gaps DEL694-753/D816V): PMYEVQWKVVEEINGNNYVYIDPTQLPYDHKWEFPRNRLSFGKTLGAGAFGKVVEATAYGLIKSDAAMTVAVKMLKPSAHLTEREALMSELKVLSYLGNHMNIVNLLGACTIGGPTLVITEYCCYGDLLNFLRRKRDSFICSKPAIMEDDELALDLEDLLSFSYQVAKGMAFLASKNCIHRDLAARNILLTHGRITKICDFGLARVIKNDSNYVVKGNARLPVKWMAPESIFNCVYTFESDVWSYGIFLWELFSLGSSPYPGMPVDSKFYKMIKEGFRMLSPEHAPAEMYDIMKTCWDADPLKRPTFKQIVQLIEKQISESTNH
Protocol description: c-Kit mutant D816V biochemical assay, AlphaScreen
Experimental context: c-kit D816V biochemical inhibitory activity; read-out: Biochemical activity (IC50 μM) Kit D816V
Experimental: Compounds to be tested were dissolved in DMSO to a concentration of 20 mM. These were diluted 30 μl into 120 μl of DMSO (4 mM) and 1 μl was added to an assay plate. These were then serially diluted 1:3 (50 μl to 100 μl DMSO) for a total of 8 points. […] The samples were incubated for 60 minutes at room temperature and the signal per well was read on EnVision reader. […]

| Compound | IC50 |
| --- | --- |
| O=S(=O)(NN1CCN(c2ncnc3[nH]c(-c4ccc(F)cc4)cc23)CC1)c1ccc(OC(F)(F)F)cc1 | 10 to 200 µM |
| CS(=O)(=O)Nc1ccc(-c2ncnc3[nH]c(-c4ccc(F)cc4)cc23)cc1 | 0.0001 to 1 µM |
| O=S(=O)(Nc1ccc(Cl)cc1)c1ccc(-c2ncnc3[nH]c(-c4ccc(F)cc4)cc23)c(F)c1 | 0.0001 to 1 µM |
| Cc1cc2c(N3CCN(C(=O)N[C@@H](C)c4cccc(F)c4)[C@H](C)C3)ncnc2[nH]1 | 0.0001 to 1 µM |
| Cc1ccc(S(=O)(=O)Nc2ccc(-c3ncnc4[nH]c(C)c(C)c34)cc2)cc1 | 1 to 10 µM |
| C[C@H](NC(=O)N1CC=C(c2ncnc3cc(-c4ccc(F)cc4)sc23)CC1)c1cccc(Cl)c1 | 1 to 10 µM |
| COc1cccc([C@H](C)NC(=O)N2CC=C(c3ncnc4cc(-c5ccc(F)cc5)sc34)CC2)c1 | 0.0001 to 1 µM |
| COc1ccc(S(=O)(=O)NC2CCN(c3ncnc4[nH]c(-c5cnn(C)c5)cc34)CC2)cc1 | 0.0001 to 1 µM |
| O=C(NCc1ccc(F)cc1)N1CCN(c2ncnc3[nH]c(-c4ccccc4)cc23)CC1 | 1 to 10 µM |
| Cc1n[nH]c2ncnc(-c3ccc(NS(=O)(=O)c4ccc(C(F)(F)F)nc4)cc3)c12 | 0.0001 to 1 µM |
| CCCNC(=O)N1CCN(c2ncnc3[nH]c(-c4ccccc4)cc23)CC1 | 10 to 200 µM |
| C[C@H](NC(=O)N1CCN(c2ncnc3[nH]c(-c4ccc(C#N)cc4)cc23)CC1)c1ccc(F)cc1 | 0.0001 to 1 µM |
| Cc1ccc(C(C)NC(=O)N2CCN(c3ncnc4cc(-c5ccc(F)cc5)sc34)CC2)s1 (stereo not shown) | 0.0001 to 1 µM |
| N#CC1(c2ccc(-c3cc4c(N5CCN(C(=O)Nc6ccc(OC(F)(F)F)cc6)CC5)ncnc4[nH]3)cc2)CC1 | 1 to 10 µM |
| O=C(Nc1cccc(C(F)(F)F)c1)N1CCN(c2ncnc3[nH]ccc23)CC1 | 10 to 200 µM |
| C[C@H](NC(=O)N1CCN(c2ncnc3[nH]c(-c4cnn(C)c4)cc23)CC1(C)C)c1ccc(F)cc1 | 0.0001 to 1 µM |

----------
The entries below are paired with their reported IC50.
Target: c-kit mutant D816V (Homo sapiens, UniProt P10721, D816V/DEL694-753)
Construct: residues 551-934, kinase insertion domain residues 694-753 deleted; 6x-histidine (N); made in house; host or cells: E. coli Arctic Express (DE3) RIL (Stratagene)
Protocol description: c-Kit mutant D816V biochemical assay, AlphaScreen
Experimental context: c-kit D816V biochemical inhibitory activity; read-out: Biochemical activity (IC50 μM) Kit D816V
Parameter measured: IC50

| Compound | Parameter measured | Result |
| --- | --- | --- |
| C[C@@H]1CN(c2ncnc3[nH]c(-c4ccncc4)cc23)CCN1C(=O)NCc1ccc(F)cc1 | IC50 | 0.0001 to 1 µM |
| C[C@H]1CN(c2ncnc3[nH]c(-c4ccncc4)cc23)CCN1C(=O)NCc1ccc(F)cc1 | IC50 | 0.0001 to 1 µM |
| Cc1ccc(-c2cc3c(N4CCN(C(=O)N[C@@H](C)c5cccc(F)c5)C(C)(C)C4)ncnc3[nH]2)cn1 | IC50 | 0.0001 to 1 µM |
| COc1ccc(NC(=O)N2CCN(c3ncnc4[nH]ccc34)CC2)cc1 | IC50 | 1 to 10 µM |
| Cc1csc(-c2cc3c(N4CCC(NS(=O)(=O)c5ccc(OC(F)(F)F)cc5)CC4)ncnc3[nH]2)c1 | IC50 | 10 to 200 µM |
| C[C@@H](NC(=O)N1CCN(c2ncnc3[nH]c(-c4ccc(F)cc4)cc23)CC1)c1ccc(F)cc1 [P-0147] | IC50 | 1 to 10 µM |
| Cc1cc2c(C3=CCC(NS(=O)(=O)c4ccc(Cl)cc4)CC3)ncnc2[nH]1 (stereo not shown) | IC50 | 0.0001 to 1 µM |
| O=C(Nc1cccc(C(F)(F)F)c1)N1CCN(c2ncnc3[nH]c(-c4cccnc4)cc23)CC1 | IC50 | 0.0001 to 1 µM |
| COc1ccc(NC(=O)N2CCN(c3ncnc4[nH]c(-c5ccncc5)cc34)C[C@H]2C)cn1 | IC50 | 0.0001 to 1 µM |
| COc1ccc(S(=O)(=O)Nc2ccc(-c3ncnc4[nH]c(C)cc34)c(F)c2)cc1 | IC50 | 1 to 10 µM |
| C[C@@H]1CN(c2ncnc3[nH]c(-c4ccncc4)cc23)CCN1C(=O)NCc1cccc(Cl)c1 | IC50 | 0.0001 to 1 µM |
| Cn1cc(-c2cc3c(N4CCN(C(=O)Nc5ccc(OC(F)F)cc5)CC4)ncnc3[nH]2)cn1 | IC50 | 0.0001 to 1 µM |
| CC[C@H](NC(=O)N1CCN(c2ncnc3[nH]c(-c4ccncc4)cc23)C[C@@H]1C)c1ccccc1 | IC50 | 0.0001 to 1 µM |
| COc1ccc(NC(=O)NC2CCN(c3ncnc4[nH]ccc34)CC2)cc1 | IC50 | 10 to 200 µM |
| CS(=O)(=O)Nc1ccc(-c2ncnc3[nH]c(-c4cc(F)ccc4F)cc23)c(F)c1 | IC50 | 0.0001 to 1 µM |
| COc1cc([C@H](C)NC(=O)N2CCN(c3ncnc4[nH]c(-c5ccc(F)cc5)cc34)C[C@H]2C)ccc1F | IC50 | 0.0001 to 1 µM |

----------
Target: c-kit mutant D816V (Homo sapiens, UniProt P10721, D816V/DEL694-753)
Construct: residues 551-934, kinase insertion domain residues 694-753 deleted; 6x-histidine (N); made in house; host or cells: E. coli Arctic Express (DE3) RIL (Stratagene)
Protocol description: c-Kit mutant D816V biochemical assay, AlphaScreen
Experimental context: c-kit D816V biochemical inhibitory activity; read-out: Biochemical activity (IC50 μM) Kit D816V

| Entry smiles | IC50 |
| --- | --- |
| CCCS(=O)(=O)Nc1ccc(-c2ncnc3[nH]c(-c4ccc(F)cc4)cc23)c(F)c1 | 0.0001 to 1 µM |
| NS(=O)(=O)c1ccc(-c2cc3c(N4CCN(C(=O)NCc5ccc(F)cc5)CC4)ncnc3[nH]2)cc1 | 0.0001 to 1 µM |
| O=C(NCc1ccccc1Cl)N1CCN(c2ncnc3[nH]c(-c4ccc(F)cc4)cc23)CC1 | 1 to 10 µM |
| COCCOc1cc2ncnc(-c3ccc(NS(=O)(=O)c4ccc(Cl)cc4)cc3F)c2cc1OCCOC | 0.0001 to 1 µM |
| COc1cccc([C@H](C)NC(=O)N2CCN(c3ncnc4[nH]c(-c5ccc(Cl)cc5)cc34)C[C@H]2C)c1 | 0.0001 to 1 µM |
| Cc1cc2c(-c3ccc(S(=O)(=O)Nc4ccc(F)cc4)cc3F)ncnc2[nH]1 | 1 to 10 µM |
| COc1cccc(NC(=O)N2CCN(c3ncnc4[nH]cc(-c5ccccc5)c34)CC2)c1 | 1 to 10 µM |
| CCc1ccc(S(=O)(=O)NC2CCN(c3ncnc4[nH]c(-c5ccnc(OC)c5)cc34)CC2)cc1 | 0.0001 to 1 µM |

----------
Target: c-kit mutant D816V (Homo sapiens, UniProt P10721, D816V/DEL694-753)
Construct: residues 551-934, kinase insertion domain residues 694-753 deleted; 6x-histidine (N); made in house; host or cells: E. coli Arctic Express (DE3) RIL (Stratagene)
Protocol description: c-Kit mutant D816V biochemical assay, AlphaScreen
Experimental context: c-kit D816V biochemical inhibitory activity; read-out: Biochemical activity (IC50 μM) Kit D816V
Parameter measured: IC50

| Compound | Parameter measured | Result |
| --- | --- | --- |
| C[C@H](NC(=O)N1CCN(c2ncnc3[nH]c(-c4ccc(C#N)cc4)cc23)CC1(C)C)c1ccc(Cl)cc1 | IC50 | 10 to 200 µM |
| Cc1cc2c(-c3ccc(NS(=O)(=O)c4cccc(Cl)c4F)c(F)c3)ncnc2[nH]1 | IC50 | 10 to 200 µM |
| CCS(=O)(=O)Nc1ccc(-c2ncnc3cc(-c4ccc(F)cc4)sc23)cc1 | IC50 | 1 to 10 µM |
| COc1cc(-c2cc3c(N4CCN(C(=O)N[C@@H](C)c5ccc(F)cc5)[C@H](C)C4)ncnc3[nH]2)ccn1 | IC50 | 0.0001 to 1 µM |
| O=C(Nc1ccc(OC(F)(F)F)cc1)N1CCN(c2ncnc3[nH]c(C#CC4CC4)cc23)CC1 | IC50 | 10 to 200 µM |
| Cn1cc(-c2cc3c(N4CCC(NS(=O)(=O)c5ccc6c(c5)OCO6)CC4)ncnc3[nH]2)cn1 | IC50 | 0.0001 to 1 µM |
| COc1cccc([C@@H](C)NC(=O)N2CCN(c3ncnc4cc(-c5ccc(F)cc5)sc34)C[C@H]2C)c1 | IC50 | 10 to 200 µM |
| C[C@H]1CN(c2ncnc3[nH]c(-c4ccncc4)cc23)CCN1C(=O)NCc1ccc(Cl)cc1 | IC50 | 0.0001 to 1 µM |
| Cc1cc2c(-c3ccc(NS(=O)(=O)c4ccc(C(F)(F)F)cc4)cc3)ncnc2[nH]1 | IC50 | 0.0001 to 1 µM |
| Cn1cc(-c2cc3c(C4=CCC(NS(=O)(=O)c5ccc(OC(F)(F)F)cc5)CC4)ncnc3[nH]2)cn1 (stereo not drawn) | IC50 | 0.0001 to 1 µM |
| COCCOc1cc2ncnc(-c3ccc(NS(=O)(=O)c4cccc(F)c4)cc3F)c2cc1OCCOC | IC50 | 0.0001 to 1 µM |
| CS(=O)(=O)Nc1ccc(-c2cc3c(-c4ccc(NS(C)(=O)=O)cc4F)ncnc3[nH]2)c(F)c1 | IC50 | 0.0001 to 1 µM |
| C[C@H](NC(=O)N1CCN(c2ncnc3[nH]c(-c4ccc(F)cc4)cc23)CC1)c1cccc(F)c1 | IC50 | 0.0001 to 1 µM |
| O=C(NCc1ccccc1)N1CCN(c2ncnc3cc(Br)sc23)CC1 | IC50 | 10 to 200 µM |
| CC(=O)Nc1cccc(-c2cc3c(N4CCN(C(=O)NCc5ccc(F)cc5)CC4)ncnc3[nH]2)c1 | IC50 | 0.0001 to 1 µM |
| Cn1cc(-c2cc3c(N4CCC(NS(=O)(=O)c5ccc6c(c5)CCO6)CC4)ncnc3[nH]2)cn1 | IC50 | 0.0001 to 1 µM |
| CC(=O)Nc1ccc(-c2ncnc3cc(-c4ccc(F)cc4)sc23)cc1 | IC50 | 10 to 200 µM |
| Cc1cc2c(-c3ccc(NS(=O)(=O)c4ccc(C)c(F)c4)cc3F)ncnc2[nH]1 | IC50 | 1 to 10 µM |
| O=C(C1CC1)N1CC=C(c2cc3ncnc(-c4ccc(NS(=O)(=O)C5CC5)cc4)c3s2)CC1 | IC50 | 0.0001 to 1 µM |
| CNS(=O)(=O)c1cccc(-c2ncnc3[nH]c(C)cc23)c1 | IC50 | 10 to 200 µM |
| Cc1cc2c(-c3ccc(NS(=O)(=O)c4cc(Cl)cs4)cc3)ncnc2[nH]1 | IC50 | 1 to 10 µM |
| CCCCc1ccc(S(=O)(=O)Nc2ccc(-c3ncnc4[nH]c(C)cc34)cc2)cc1 | IC50 | 1 to 10 µM |
| O=C(Nc1ccc(F)c(Cl)c1)NC1CCN(c2ncnc3[nH]ccc23)CC1 | IC50 | 10 to 200 µM |
| COc1cc2c(-c3ccc(NS(C)(=O)=O)cc3F)ncnc2cc1OCCCN1CCCCC1 | IC50 | 0.0001 to 1 µM |
| Cc1cc2c(-c3ccc(NS(=O)(=O)c4sc(C)nc4C)cc3)ncnc2[nH]1 | IC50 | 1 to 10 µM |
| O=C(NC(=O)N1CCN(c2ncnc3[nH]ccc23)CC1)c1ccccc1 | IC50 | 10 to 200 µM |
| Cc1ccc(S(=O)(=O)Nc2ccc(-c3ncnc4cc(C5=CCN(C(=O)C6CC6)CC5)sc34)cc2)cc1 | IC50 | 0.0001 to 1 µM |
| NC(=O)c1cccc(-c2cc3c(N4CCN(C(=O)Nc5ccc(OC(F)(F)F)cc5)CC4)ncnc3[nH]2)c1 | IC50 | 10 to 200 µM |
| C[C@H](NC(=O)N1CCN(c2ncnc3[nH]c(-c4ccc(C#N)cc4)cc23)CC1)c1ccc(Cl)cc1 | IC50 | 0.0001 to 1 µM |
| C[C@H](NC(=O)N1CCN(c2ncnc3[nH]c(-c4ccc(Cl)cc4)cc23)CC1)c1ccc(Cl)cc1 | IC50 | 0.0001 to 1 µM |
| COc1cc2ncnc(-c3ccc(NS(C)(=O)=O)cc3F)c2cc1OC | IC50 | 0.0001 to 1 µM |
| O=C(Nc1cccc(Cl)c1)N1CCN(c2ncnc3[nH]ccc23)CC1 | IC50 | 10 to 200 µM |
| C[C@H](NC(=O)N1CCN(c2ncnc3[nH]c(-c4ccc(F)cc4)cc23)CC1)c1cccc(C(F)(F)F)c1 | IC50 | 0.0001 to 1 µM |
